Quick list: % of efficacy (protection) per entry.
System: Septoria tritici
EXPERIMENT NOTES: In vivo preventive test on Septoria tritici (leaf spot on wheat)
RUN CONDITIONS: 500 ppm; wheat plants sprayed 24 hours before contamination; grading 21 to 28 days after contamination vs control plants

{"COMPOUND": "C#Cc1cnc2ccc(C3=NOC(C)(C(=O)NCc4cncn4C)C3)cc2c1 (stereo not shown) [compound 155]", "TARGET DESC": "Septoria tritici", "VALUE UNIT": "%", "% of efficacy (protection)": 100}
{"COMPOUND": "C#CCONC(=O)C1(C)CC(c2ccc3ncc(C#C)cc3c2)=NO1 (stereo not shown) [compound 503]", "TARGET DESC": "Septoria tritici", "VALUE UNIT": "%", "% of efficacy (protection)": 71}
{"COMPOUND": "C#Cc1cnc2ccc(C3=NOC(OC)(C(=O)NCCCOCC)C3)cc2c1 (stereo not shown) [compound 408]", "TARGET DESC": "Septoria tritici", "VALUE UNIT": "%", "% of efficacy (protection)": 100}
{"COMPOUND": "C#Cc1cnc2ccc(C3=NOC(C)(C(=O)NCC4(C)CCCO4)C3)cc2c1 (stereo not shown) [compound 128]", "TARGET DESC": "Septoria tritici", "VALUE UNIT": "%", "% of efficacy (protection)": 83}
{"COMPOUND": "C#Cc1cnc2ccc(C3=NOC(C)(C(=O)NOC(C)C4CC4)C3)cc2c1 (stereo not shown) [compound 471]", "TARGET DESC": "Septoria tritici", "VALUE UNIT": "%", "% of efficacy (protection)": 97}
{"COMPOUND": "C#Cc1cnc2ccc(C3=NOC(C)(C(=O)NC(C)c4nc(C(C)C)no4)C3)cc2c1 (stereo not shown) [compound 329]", "TARGET DESC": "Septoria tritici", "VALUE UNIT": "%", "% of efficacy (protection)": 100}
{"COMPOUND": "CC1(C(=O)NCc2cnn(Cc3ccccc3)c2)CC(c2ccc3ncc(Br)cc3c2)=NO1 (stereo not shown) [compound 201]", "TARGET DESC": "Septoria tritici", "VALUE UNIT": "%", "% of efficacy (protection)": 86}
{"COMPOUND": "C#Cc1cnc2ccc(C3=NOC(C)(C(=O)NCC(OC)OC)C3)cc2c1 (racemic) [compound 366]", "TARGET DESC": "Septoria tritici", "VALUE UNIT": "%", "% of efficacy (protection)": 100}
{"COMPOUND": "C#Cc1cnc2ccc(C3=NOC(C)(C(=O)NCc4cnn(C)c4C)C3)cc2c1 (stereo not shown) [compound 178]", "TARGET DESC": "Septoria tritici", "VALUE UNIT": "%", "% of efficacy (protection)": 100}
{"COMPOUND": "CCOCCCNC(=O)C1(C(F)F)CC(c2ccc3ncc(I)cc3c2)=NO1 (stereo not shown) [compound 619]", "TARGET DESC": "Septoria tritici", "VALUE UNIT": "%", "% of efficacy (protection)": 71}

====

Measured % of efficacy (protection), listed per entry for reference.
Test system: Septoria tritici
EXPERIMENT NOTES: In vivo preventive test on Septoria tritici (leaf spot on wheat)
RUN CONDITIONS: 500 ppm; wheat plants sprayed 24 hours before contamination; grading 21 to 28 days after contamination vs control plants

{"MOLECULE": "C#Cc1cnc2ccc(C3=NOC(C)(C(=O)NC(CN4CCCC4)C4CC4)C3)cc2c1 (stereo not drawn)", "% of efficacy (protection)": "78%"}
{"MOLECULE": "CC(NC(=O)C1(C)CC(c2ccc3ncc(Br)cc3c2)=NO1)c1ccsc1 (stereo not drawn)", "% of efficacy (protection)": "80%"}
{"MOLECULE": "C#Cc1cnc2ccc(C3=NOC(C(=O)NCCCOCC)(C(F)F)C3)cc2c1 (stereo not drawn)", "% of efficacy (protection)": "79%"}

====

Items are presented alongside their recorded % of efficacy (protection).
System: Septoria tritici
EXPERIMENT NOTES: In vivo preventive test on Septoria tritici (leaf spot on wheat)
RUN CONDITIONS: 500 ppm; wheat plants sprayed 24 hours before contamination; grading 21 to 28 days after contamination vs control plants

{"MOLECULE": "CC(C)NC(=O)C1(C)CC(c2ccc3ncc(C#C[Si](C)(C)C)cc3c2)=NO1 (stereo not drawn) [Compound No. 150]", "TARGET DESC": "Septoria tritici", "% of efficacy (protection) (%)": 100}
{"MOLECULE": "C#Cc1cnc2ccc(C3=NOC(C)(C(=O)NC(C)(C)/C=N/OC)C3)cc2c1 (stereo not drawn) [compound 463]", "TARGET DESC": "Septoria tritici", "% of efficacy (protection) (%)": 100}
{"MOLECULE": "C#Cc1cnc2ccc(C3=NOC(C)(C(=S)NCc4cnn(C)c4)C3)cc2c1 (racemic) [compound 451]", "TARGET DESC": "Septoria tritici", "% of efficacy (protection) (%)": 94}
{"MOLECULE": "CCONC(=O)C1(C)CC(c2ccc3ncc(Br)cc3c2)=NO1 (racemic) [compound 389]", "TARGET DESC": "Septoria tritici", "% of efficacy (protection) (%)": 100}
{"MOLECULE": "C#Cc1cc2cc(C3=NOC(C)(C(=O)NCc4cn(CC)nc4C)C3)ccc2nc1OC (stereo not drawn) [compound 490]", "TARGET DESC": "Septoria tritici", "% of efficacy (protection) (%)": 88}
{"MOLECULE": "Cc1cnc(CNC(=O)C2(C)CC(c3ccc4ncc(Br)cc4c3)=NO2)cn1 (stereo not drawn) [compound 85]", "TARGET DESC": "Septoria tritici", "% of efficacy (protection) (%)": 75}
{"MOLECULE": "COC1(C(=S)NC(C)C)CC(c2ccc3ncc(Br)cc3c2)=NO1 (stereo not drawn) [compound 410]", "TARGET DESC": "Septoria tritici", "% of efficacy (protection) (%)": 100}
{"MOLECULE": "CCn1cc(CNC(=O)C2(C(F)F)CC(c3ccc4ncc(Br)cc4c3)=NO2)c(C)n1 (stereo not drawn) [compound 621]", "TARGET DESC": "Septoria tritici", "% of efficacy (protection) (%)": 97}
{"MOLECULE": "CC1(C)OCC(CNC(=O)C2(C)CC(c3cc(Cl)c4ncc(Br)cc4c3)=NO2)O1 (stereo not drawn) [compound 540]", "TARGET DESC": "Septoria tritici", "% of efficacy (protection) (%)": 92}

====

Type: physicochemical
RUN CONDITIONS: method [a]: HPLC/LC-MS on reversed phase at pH 2.7, 0.1% formic acid in water / acetonitrile, linear gradient 10% to 95% acetonitrile

{"COMPOUND": "CC(C)n1cc(CNC(=O)C2(C)CC(c3ccc4ncc(Br)cc4c3)=NO2)cn1 (stereo not drawn) [compound 199]", "log P": "2.5^[a]"}
{"COMPOUND": "C#Cc1cnc2ccc(C3=NOC(C)(C(=O)NCc4cncn4C)C3)cc2c1 (stereo not drawn) [compound 155]", "log P": "1.91^[a]"}
{"COMPOUND": "CC1(C(=O)NCc2cccs2)CC(c2ccc3ncc(Br)cc3c2)=NO1 (stereo not drawn) [compound 89]", "log P": "3.06^[a]"}
{"COMPOUND": "CC1(C(=O)NCc2ccncc2)CC(c2ccc3ncc(Br)cc3c2)=NO1 (stereo not drawn) [compound 102]", "log P": "1.34^[a]"}
{"COMPOUND": "C#Cc1cnc2ccc(C3=NOC(C)(C(=O)NCc4ccc(Oc5ccccc5)cc4)C3)cc2c1 (stereo not drawn) [compound 175]", "log P": "3.8^[a]"}
{"COMPOUND": "CC1(C(=O)NCc2ccc(Cl)cc2)CC(c2ccc3ncc(Br)cc3c2)=NO1 (stereo not drawn) [compound 94]", "log P": "3.61^[a]"}
{"COMPOUND": "C#Cc1cnc2ccc(C3=NOC(C)(C(=O)NCC4CCC(C(F)(F)F)CC4)C3)cc2c1 (stereo not drawn) [compound 121]", "log P": "3.61^[a]"}
{"COMPOUND": "CCOCCCNC(=O)C1(Cc2ccccc2)CC(c2ccc3ncc(Br)cc3c2)=NO1 (stereo not drawn) [compound 59]", "log P": "3.8^[a]"}
{"COMPOUND": "CC1(C(=O)NCc2cn[nH]c2-c2cccs2)CC(c2ccc3ncc(Br)cc3c2)=NO1 (stereo not drawn) [compound 191]", "log P": "2.51^[a]"}
{"COMPOUND": "Cn1cncc1CNC(=O)C1(C)CC(c2ccc3ncc(Br)cc3c2)=NO1 (stereo not drawn) [compound 203]", "log P": "2.14^[a]"}
{"COMPOUND": "CC1(C(=O)NCc2cnn(-c3ccccc3)c2)CC(c2ccc3ncc(Br)cc3c2)=NO1 (stereo not drawn) [compound 202]", "log P": "3.11^[a]"}
{"COMPOUND": "CCOc1cnc2ccc(C3=NOC(C)(C(=O)NC(C)C)C3)cc2c1 (stereo not drawn) [compound 78]", "log P": "2.43^[a]"}
{"COMPOUND": "Cc1nn(C(C)C)c(C)c1CNC(=O)C1(C)CC(c2ccc3ncc(Br)cc3c2)=NO1 (stereo not drawn) [compound 184]", "log P": "2.6^[a]"}
{"COMPOUND": "Cc1c(CNC(=O)C2(C)CC(c3ccc4ncc(Br)cc4c3)=NO2)cnn1C (stereo not drawn) [compound 179]", "log P": "2.15^[a]"}
{"COMPOUND": "Cc1ccc(CNC(=O)C2(C)CC(c3ccc4ncc(Br)cc4c3)=NO2)o1 (stereo not drawn) [compound 90]", "log P": "3.15^[a]"}
{"COMPOUND": "CC1(C(=O)NCCc2ccc(OC(F)(F)F)cc2)CC(c2ccc3ncc(Br)cc3c2)=NO1 (stereo not drawn) [compound 211]", "log P": "3.96^[a]"}
{"COMPOUND": "CC1(C(=O)NCc2ccc(OC(F)(F)F)cc2)CC(c2ccc3ncc(Br)cc3c2)=NO1 (stereo not drawn) [compound 101]", "log P": "3.92^[a]"}
{"COMPOUND": "O=C(NC1CC1)C1(Cc2ccccc2)CC(c2ccc3ncc(Br)cc3c2)=NO1 (stereo not drawn) [compound 60]", "log P": "3.46^[a]"}
{"COMPOUND": "CCn1cc(CNC(=O)C2(C(F)(F)F)CC(c3ccc4ncc(Br)cc4c3)=NO2)c(C)n1 (stereo not drawn) [compound 35]", "log P": "3.02^[a]"}
{"COMPOUND": "C#Cc1cnc2ccc(C3=NOC(C)(C(=O)NC(C)c4ccccn4)C3)cc2c1 (stereo not drawn) [compound 206]", "log P": "1.9^[a]"}
{"COMPOUND": "CCn1cc(CNC(=O)C2(C)CC(c3ccc4ncc(S(C)(=O)=O)cc4c3)=NO2)c(C)n1 (stereo not drawn) [compound 151]", "log P": "1.6^[a]"}
